// Ratio Ki lookup, one value per entry
- Species on record: Homo sapiens
- Test details: Selectivity ratio of Ki for human adenosine A2A receptor to Ki for human adenosine A3 receptor

{"columns": ["Given smiles", "Ratio Ki"],
 "data": [
  ["CCOC(=O)c1nc(NC(=O)Cc2ccccc2)nc2nn(CCc3ccccc3)cc12", 0.2],
  ["CCOC(=O)c1nc(N)nc2nn(C)cc12", 2.2],
  ["CCOC(=O)c1nc(NC(=O)c2ccc(C(F)(F)F)cc2)nc2nn(CCc3ccccc3)cc12", 1.3],
  ["CCOC(=O)c1nc(NC(=O)c2ccc(F)cc2)nc2nn(CCc3ccccc3)cc12", 0.8],
  ["CCOC(=O)c1nc(NC(=O)c2ccccc2)nc2nn(C)cc12", "< 0.16"],
  ["CCOC(=O)c1nc(NC(=O)Cc2ccccc2)nc2nn(CC(C)(C)C)cc12", 1.3],
  ["CCOC(=O)c1nc(N)nc2nn(C(C)C)cc12", 0.18],
  ["CCOC(=O)c1nc(N(C(=O)c2ccc(Br)cc2)C(=O)c2ccc(Br)cc2)nc2nn(C)cc12", "> 34"],
  ["CCOC(=O)c1nc(NC(=O)c2ccc(C)cc2)nc2nn(C(C)C)cc12", 0.1],
  ["CCOC(=O)c1nc(NC(=O)Cc2ccccc2)nc2nn(C)cc12", 0.5]
]}

====

// Ki lookup, one value per entry
- Study target: Adenosine receptor A2b (Homo sapiens, UniProt P29275)
- Sequence (P29275 whole entry): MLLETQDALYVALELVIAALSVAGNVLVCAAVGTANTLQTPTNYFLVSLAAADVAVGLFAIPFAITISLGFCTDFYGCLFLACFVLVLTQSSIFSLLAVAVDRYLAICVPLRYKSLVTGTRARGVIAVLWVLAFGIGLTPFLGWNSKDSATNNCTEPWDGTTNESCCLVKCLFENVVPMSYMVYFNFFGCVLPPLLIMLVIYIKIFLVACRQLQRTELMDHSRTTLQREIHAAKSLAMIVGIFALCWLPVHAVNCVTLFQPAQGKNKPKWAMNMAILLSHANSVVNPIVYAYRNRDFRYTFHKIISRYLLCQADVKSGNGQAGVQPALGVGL
- Test details: Antagonist activity at human adenosine A2B receptor expressed in CHO cells assessed as inhibition of NECA-induced adenylyl cyclase activity
- Format: functional, cell-based

{"columns": ["Given smiles", "Study target", "Ki"],
 "data": [
  ["CCOC(=O)c1nc(NC(=O)c2ccc(F)cc2)nc2nn(CCc3ccccc3)cc12", "Adenosine receptor A2b (Homo sapiens, UniProt P29275)", "> 20 µM"],
  ["CCOC(=O)c1nc(NC(=O)c2ccc(C)cc2)nc2nn(C(C)C)cc12", "Adenosine receptor A2b (Homo sapiens, UniProt P29275)", "> 20 µM"],
  ["CCOC(=O)c1nc(N)nc2nn(CCc3ccccc3)cc12", "Adenosine receptor A2b (Homo sapiens, UniProt P29275)", "60 µM"],
  ["CCOC(=O)c1nc(N(C(=O)c2ccc(F)c(F)c2)C(=O)c2ccc(F)c(F)c2)nc2nn(C)cc12", "Adenosine receptor A2b (Homo sapiens, UniProt P29275)", "> 20 µM"],
  ["CCOC(=O)c1nc(N(C(=O)c2ccc(Br)cc2)C(=O)c2ccc(Br)cc2)nc2nn(C)cc12", "Adenosine receptor A2b (Homo sapiens, UniProt P29275)", "> 20 µM"],
  ["CCOC(=O)c1nc(NC(=O)c2ccc(Br)cc2)nc2nn(CCc3ccccc3)cc12", "Adenosine receptor A2b (Homo sapiens, UniProt P29275)", "> 20 µM"],
  ["CCOC(=O)c1nc(N(C(=O)c2ccccc2)C(=O)c2ccccc2)nc2nn(C)cc12", "Adenosine receptor A2b (Homo sapiens, UniProt P29275)", "> 20 µM"],
  ["CCOC(=O)c1nc(NC(=O)c2ccc(F)cc2)nc2nn(C(C)C)cc12", "Adenosine receptor A2b (Homo sapiens, UniProt P29275)", "> 20 µM"],
  ["CCOC(=O)c1nc(N(C(=O)c2ccccc2)C(=O)c2ccccc2)nc2nn(C(C)C)cc12", "Adenosine receptor A2b (Homo sapiens, UniProt P29275)", "> 20 µM"],
  ["CCOC(=O)c1nc(NC(=O)c2ccc(F)cc2)nc2nn(C)cc12", "Adenosine receptor A2b (Homo sapiens, UniProt P29275)", "> 20 µM"],
  ["CC(C)n1cc2c(C(N)=O)nc(N)nc2n1", "Adenosine receptor A2b (Homo sapiens, UniProt P29275)", "> 20 µM"],
  ["CCOC(=O)c1nc(NC(=O)c2ccccc2)nc2nn(CCc3ccccc3)cc12", "Adenosine receptor A2b (Homo sapiens, UniProt P29275)", "> 10 µM"],
  ["CCOC(=O)c1nc(NC(=O)c2ccc(C(F)(F)F)cc2)nc2nn(C(C)C)cc12", "Adenosine receptor A2b (Homo sapiens, UniProt P29275)", "> 20 µM"],
  ["CCOC(=O)c1nc(NC(=O)Cc2ccccc2)nc2nn(CC(C)(C)C)cc12", "Adenosine receptor A2b (Homo sapiens, UniProt P29275)", "> 20 µM"],
  ["CCOC(=O)c1nc(NC(=O)c2ccc(F)cc2)nc2nn(CC(C)(C)C)cc12", "Adenosine receptor A2b (Homo sapiens, UniProt P29275)", "> 20 µM"],
  ["CC(C)(C)Cn1cc2c(C(N)=O)nc(N)nc2n1", "Adenosine receptor A2b (Homo sapiens, UniProt P29275)", "> 20 µM"],
  ["CCOC(=O)c1nc(N)nc2nn(CC(C)(C)C)cc12", "Adenosine receptor A2b (Homo sapiens, UniProt P29275)", "> 15 µM"],
  ["CCOC(=O)c1nc(NC(=O)c2ccc(C(F)(F)F)cc2)nc2nn(C)cc12", "Adenosine receptor A2b (Homo sapiens, UniProt P29275)", "> 20 µM"],
  ["CCOC(=O)c1nc(N)nc2nn(C(C)C)cc12", "Adenosine receptor A2b (Homo sapiens, UniProt P29275)", "> 10 µM"],
  ["CCOC(=O)c1nc(NC(=O)c2ccccc2)nc2nn(C(C)C)cc12", "Adenosine receptor A2b (Homo sapiens, UniProt P29275)", "> 10 µM"],
  ["Cn1cc2c(C(N)=O)nc(N)nc2n1", "Adenosine receptor A2b (Homo sapiens, UniProt P29275)", "> 20 µM"],
  ["CCOC(=O)c1nc(NC(=O)c2ccccc2)nc2nn(C)cc12", "Adenosine receptor A2b (Homo sapiens, UniProt P29275)", "> 20 µM"]
]}
